Molecular target: recombinant MS4A4A soluble polypeptide JS5
Assay: ELISA, 0.4 ug/ml antibody
// reported OD450 per item
Reply with just the number.

// worked examples, OD450 included
anti-MS4A4A antibody 4A-365 (antibody, V domains shown) VH: QVQLVQSGSELKKPGASVKVSCKASGYTFTSYGLSWIRQAPGQGLEWMGWINTYSGVPTYAQGFTGRFVFSLDTSVSTAYLQISSLKAEDTAVYYCARTMVDYWGQGTLVTVSS VL: DVVMTQSPLSLPVTLGQPASISCKSSQSLLYSDGKTYLSWFQQRPGQSPRRLIYLVSKLSSGVPDRFSGSGSGTDFTLKISRVEAEDVGVYYCWQGIDFHQTFGGGTKVEIK :: 0.845
anti-MS4A4A antibody 4A-361 (antibody, V domains shown) VH: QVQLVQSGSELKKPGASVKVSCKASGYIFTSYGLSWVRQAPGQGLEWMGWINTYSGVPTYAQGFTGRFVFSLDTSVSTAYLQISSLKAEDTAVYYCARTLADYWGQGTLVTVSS VL: DVVMTQSPLSLPVTLGQPASISCKSSQSLLYSDGKTYLSWFQQRPGQSPRRLIYLVSKLESGVPDRFSGSGSGTDFTLKISRVEAEDVGVYYCWQGIDFHQTFGGGTKVEIK :: 0.79
anti-MS4A4A antibody 4A-366 (antibody, V domains shown) VH: QVQLVQSGSELKKPGASVKVSCKASGYTFTSYGLSWIRQAPGQGLEWMGWINTYSGVPTYAQGFTGRFVFSLDTSVSTAYLQISSLKAEDTAVYYCARTMVDYWGQGTLVTVSS VL: DVVMTQSPLSLPVTLGQPASISCKSSRSLLYSDGKTYLSWFQQRPGQSPRRLIYLVSKLDSGVPDRFSGSGSGTDFTLKISRVEAEDVGVYYCWQGIDFHQTFGGGTKVEIK :: 0.875
anti-MS4A4A antibody 4A-375 (antibody, V domains shown) VH: QVQLVQSGSELKKPGASVKVSCKASGYIFTSYGLSWVRQAPGQGLEWMGWINTYSGVPTYAQGFTGRFVFSLDTSVSTAYLQISSLKAEDTAVYYCARSLADYWGQGTLVTVSS VL: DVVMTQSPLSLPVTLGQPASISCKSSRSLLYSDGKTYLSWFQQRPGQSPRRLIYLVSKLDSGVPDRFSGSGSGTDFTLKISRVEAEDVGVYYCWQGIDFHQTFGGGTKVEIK :: 0.996

Attention now shifts to the item below.
For this binder ( anti-MS4A4A antibody 4A-357 (antibody, V domains shown) VH: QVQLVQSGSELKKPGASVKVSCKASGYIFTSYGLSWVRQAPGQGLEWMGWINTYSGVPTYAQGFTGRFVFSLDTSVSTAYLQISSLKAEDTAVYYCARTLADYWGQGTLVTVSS VL: DVVMTQSPLSLPVTLGQPASISCKSSQSLLYSDGKTYLSWFQQRPGQSPRRLIYEVSKLDSGVPDRFSGSGSGTDFTLKISRVEAEDVGVYYCWQGIDFHQTFGGGTKVEIK ), measured OD450 is 0.892
